The origin of these recorded values is patent US20110046378A1.

target_of_assay: Aβ(1-42) Fibrils (Homo sapiens, UniProt P05067)
Sequence (P05067 672-713 limits assumed): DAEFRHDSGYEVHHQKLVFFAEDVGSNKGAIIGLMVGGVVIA
assay_details: Biacore (SPR) screening on immobilized Aβ42 fibrils;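 further: minus means no binding and more plus signs mean higher affinity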
Format: binding
run_parameters: screening compounds at 10 uM
reported_endpoint: BINDING LEVELS TO Aβ(1-42) Fibrils

Previously resolved entries follow.
Fc1cc(F)cc(-c2cn(-c3cc(Cl)ccc3Cl)nn2)c1 | −
Cc1c(-c2ccccc2)oc2cc(O)ccc2c1=O | +
Cc1oc2c(C)c(O)ccc2c(=O)c1-c1nncn1-c1ccccc1 | −
Oc1ccc(-c2nc(-c3ccncc3)c(-c3ccc(F)cc3)[nH]2)cc1 | ++
Oc1cnc(Cl)c2ccccc12 | −
O=c1c(O)c(-c2ccccc2)[nH]c2ccccc12 | ++

// BINDING LEVELS TO Aβ(1-42) Fibrils lookup, molecule = COc1ccc2oc(-c3ccc(OC)c(OC)c3)c(OC)c(=O)c2c1 , result: +

// BINDING LEVELS TO Aβ(1-42) Fibrils lookup, molecule = CCOc1ccc2c(=O)c(Oc3ccccc3)c(C)oc2c1 , result: +

// BINDING LEVELS TO Aβ(1-42) Fibrils lookup, molecule = Cc1cc(C)c2oc(-c3cccs3)c(O)c(=O)c2c1 , result: −

* * *

target_of_assay: Aβ42 soluble aggregates (Homo sapiens)
Sequence (P05067 672-713 limits assumed): as above
assay_details: Surface plasmon resonance (Biacore) assay, Aβ42 soluble aggregates
run_parameters: SPR; read-out: binding to soluble aggregates
reported_endpoint: Kd (nM)
Report only the number, with the unit nM understood.

// Kd lookup, compound = FCCOCCOCCOc1ccc2c(c1)[nH]c1ccccc12 [CB-003] , result: 262

* * *

target_of_assay: Amyloid (AD patient's brain slice) (Homo sapiens)
Construct: The brain slices were 20 um thick
assay_details: IC50 determination with [18F]-PiB by ex vivo competition assay using autoradiography staining
Format: binding
run_parameters: determination 2, vs [18F]-PiB; read-out: IC50 2
reported_endpoint: pIC50
Field pIC50 (float): negative decimal logarithm of the concentration in molar.

// pIC50 lookup, compound = FCCOc1ccc2c(c1)[nH]c1ccccc12 , result: 6.32

* * *

target_of_assay: Aβ(1-42) Fibrils (Homo sapiens, UniProt P05067)
assay_details: Biacore (SPR) screening on immobilized Aβ42 fibrils;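 further: minus means no binding and more plus signs mean higher affinity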
Assay type: binding
run_parameters: screening compounds at 10 uM
reported_endpoint: BINDING LEVELS TO Aβ(1-42) Fibrils

Previously resolved entries follow.
O=c1c(O)c(-c2ccccc2)oc2ccc(O)cc12 | ++
Nc1cccc(-c2cn(-c3cc(Cl)cc(Cl)c3)nn2)c1 | +
Cc1cc(C)c2oc(-c3ccco3)c(O)c(=O)c2c1 | −
Cc1ccc(O)c(-c2ccno2)c1 | +
Oc1ccc2c(c1)[nH]c1ccccc12 [drawing 33] | +
Cc1oc2cc(O)ccc2c(=O)c1-c1nncn1-c1ccccc1 | +
Fc1ccc(-c2nc(-c3ccccc3)c(-c3ccccc3)[nH]2)cc1 | −
COc1cccc2oc(-c3ccccc3)cc(=O)c12 | −

// BINDING LEVELS TO Aβ(1-42) Fibrils lookup, molecule = COc1c(-c2ccco2)oc2ccccc2c1=O , result: +

// BINDING LEVELS TO Aβ(1-42) Fibrils lookup, molecule = Fc1ccc(-c2cn(-c3cccc(C(F)(F)F)c3)nn2)c(F)c1 , result: +

// BINDING LEVELS TO Aβ(1-42) Fibrils lookup, molecule = Cc1nccc2c1[nH]c1cc(O)ccc12 [drawing 32] , result: +

// BINDING LEVELS TO Aβ(1-42) Fibrils lookup, molecule = O=c1cc(-c2ccccc2)oc2cc(O)ccc12 , result: +

* * *

target_of_assay: Aβ(1-42) Fibrils (Homo sapiens, UniProt P05067)
assay_details: Biacore (SPR) screening on immobilized Aβ42 fibrils;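 further: minus means no binding and more plus signs mean higher affinity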
Assay type: binding
run_parameters: screening compounds at 10 uM
reported_endpoint: BINDING LEVELS TO Aβ(1-42) Fibrils

C[S+]([O-])c1ccc(-c2nc(-c3ccc(F)cc3)c(-c3ccncc3)[nH]2)cc1 (stereo not drawn) | +
Cc1oc2cc(O)ccc2c(=O)c1-c1ccc(F)cc1 | +
COc1cccc(-c2oc3cc(OC)ccc3c(=O)c2OC)c1 | −
O=c1c(O)c(-c2ccc(O)c(O)c2)oc2cc(O)ccc12 | +++++
Nc1ccc2[nH]c(C(F)(F)F)nc2c1 | +
CC1NCCc2cc(O)c(O)cc21 (stereo not drawn) | +
Nc1ccc(O)c2ncccc12 | +
Fc1ccc(-c2cn(-c3ccc(Cl)c(Cl)c3)nn2)c(F)c1 | −

Now examine the next entry.
// BINDING LEVELS TO Aβ(1-42) Fibrils lookup, compound = O=c1cc(-c2ccccc2)oc2ccc(O)cc12 , result: +

* * *

target_of_assay: Aβ(1-42) Oligomers/Polymers (Homo sapiens, UniProt P05067)
Sequence (P05067 672-713 limits assumed): as above
assay_details: Biacore (SPR) screening on immobilized Aβ42 oligomers/soluble polymers
Assay type: binding
run_parameters: screening compounds at 10 uM
reported_endpoint: BINDING LEVELS TO Aβ(1-42) Oligomers/Polymers

Previously resolved entries follow.
O=c1c(O)c(-c2cccc(O)c2)oc2ccc(O)cc12 | ++++
O=c1cc(-c2ccccc2)c2ccc(O)c(O)c2o1 | +++++
Oc1ccc2c(c1)[nH]c1ccccc12 [drawing 33] | +++
COc1cccc2oc(-c3ccccc3)cc(=O)c12 | +

// BINDING LEVELS TO Aβ(1-42) Oligomers/Polymers lookup, molecule = CC1NCCc2cc(O)c(O)cc21 (centres unmarked) , result: ++

// BINDING LEVELS TO Aβ(1-42) Oligomers/Polymers lookup, molecule = COc1c(-c2ccco2)oc2ccccc2c1=O , result: +

* * *

target_of_assay: Amyloid (AD patient's brain slice) (Homo sapiens)
Construct: The brain slices were 20 um thick
assay_details: IC50 determination with [18F]-PiB by ex vivo competition assay using autoradiography staining
Type: binding
run_parameters: determination 13, vs [18F]-PiB; read-out: IC50 13
reported_endpoint: IC50 (nM)

CN(C)c1ccc2c(c1)[nH]c1cc(OCCOCCOCCF)ccc12 | 300

[P] FCCOCCOCCOc1ccc2c(c1)[nH]c1ccccc12
[Q] CNc1ccc2c(c1)[nH]c1cc(OCCOCCOCCF)ccc12
// query Lab log: flag the item ( P or Q ) with the smaller IC50 figure. Respond using the label that marks the chosen record.
// result Q

* * *

target_of_assay: Aβ(1-42) Oligomers/Polymers (Homo sapiens, UniProt P05067)
assay_details: Biacore (SPR) screening on immobilized Aβ42 oligomers/soluble polymers
Type: binding
run_parameters: screening compounds at 10 uM
reported_endpoint: BINDING LEVELS TO Aβ(1-42) Oligomers/Polymers

Previously resolved entries follow.
Oc1ccc(-c2nc(-c3ccncc3)c(-c3ccc(F)cc3)[nH]2)cc1 | ++
O=c1cc(-c2ccccc2)oc2cc(O)ccc12 | +
Cc1oc2cc(O)ccc2c(=O)c1-c1ccc(F)cc1 | +
Cc1cc(C)c2oc(-c3ccco3)c(O)c(=O)c2c1 | +
Nc1cccc(-c2cn(-c3cc(Cl)cc(Cl)c3)nn2)c1 | +
O=c1cc(-c2ccccc2)oc2ccc(O)cc12 | ++

// BINDING LEVELS TO Aβ(1-42) Oligomers/Polymers lookup, molecule = Oc1cnc(Cl)c2ccccc12 , result: +

// BINDING LEVELS TO Aβ(1-42) Oligomers/Polymers lookup, molecule = C[S+]([O-])c1ccc(-c2nc(-c3ccc(F)cc3)c(-c3ccncc3)[nH]2)cc1 (stereo not shown) , result: ++

// BINDING LEVELS TO Aβ(1-42) Oligomers/Polymers lookup, molecule = Fc1cc(F)cc(-c2cn(-c3cc(Cl)ccc3Cl)nn2)c1 , result: +

* * *

target_of_assay: Amyloid (AD patient's brain slice) (Homo sapiens)
Construct: The brain slices were 20 um thick
assay_details: IC50 determination with [18F]-PiB by ex vivo competition assay using autoradiography staining
Format: binding
run_parameters: determination 6, vs [18F]-PiB; read-out: IC50 6
reported_endpoint: IC50 (µM)

CNc1ccc2c(c1)[nH]c1cc(OCCOCCOCCF)ccc12 [CB-004] | 0.3

[A] CN(C)c1ccc2c(c1)[nH]c1cc(OCCOCCOCCF)ccc12 [CB-007]
[B] FCCOCCOCCOc1ccc2c(c1)[nH]c1ccccc12 [CB-003]
[C] O=CNc1ccc2c(c1)[nH]c1cc(OCCF)ccc12 [CB-012]
// query Order the records by IC50, with each subsequent value no larger than the one before. Give the labels in the order specified.
// result B, C, A

* * *

target_of_assay: Amyloid (AD patient's brain slice) (Homo sapiens)
Construct: The brain slices were 20 um thick
assay_details: IC50 determination with [18F]-PiB by ex vivo competition assay using autoradiography staining
Type: binding
run_parameters: determination 7, vs [18F]-PiB; read-out: IC50 7
reported_endpoint: IC50 (nM)

O=CNc1ccc2c(c1)[nH]c1cc(OCCOCCF)ccc12 | 540
O=CNc1ccc2c(c1)[nH]c1cc(OCCF)ccc12 | 390
